Test system: HCT-116
Assay: Antiproliferative activity against human HCT-116 cells assessed as inhibition of cell growth by MTT assay
Assay type: functional, cell-based
observed-property: IC50

- compound: "Cc1ccc2c(c1Cl)C(=O)c1nc3nc4ccccc4cc3c(=O)n1-2"
  IC50: "43.2 µM"
- compound: "O=C1c2c(ccc(F)c2Cl)-n2c1nc1nc3ccccc3cc1c2=O"
  IC50: "0.33 µM"
- compound: "O=C1c2ccccc2-n2c1nc1cc3ccccc3cc1c2=O [BENZO[K]TRYPTANTHRIN]"
  IC50: "13.5 µM"

input: May I ask what IC50 has been recorded for O=C1c2ccccc2-n2c1nc1nc3ccccc3cc1c2=O ?
output: 25.2 µM

input: Another: O=c1c2cc3ccccc3nc2nc2n1-c1ccccc1/C2=N\O
output: > 100 µM

input: Similarly, O=C1c2cc(F)c(Cl)cc2-n2c1nc1nc3ccccc3cc1c2=O ?
output: 0.4 µM

input: For N/N=C1\c2ccccc2-n2c1nc1nc3ccccc3cc1c2=O then?
output: > 100 µM

input: Another compound: O=C1c2cc(F)ccc2-n2c1nc1nc3ccccc3cc1c2=O
output: 15 µM
